- SUBJECT_OF_TEST: UniProt P15145
- Sequence (P15145 whole entry): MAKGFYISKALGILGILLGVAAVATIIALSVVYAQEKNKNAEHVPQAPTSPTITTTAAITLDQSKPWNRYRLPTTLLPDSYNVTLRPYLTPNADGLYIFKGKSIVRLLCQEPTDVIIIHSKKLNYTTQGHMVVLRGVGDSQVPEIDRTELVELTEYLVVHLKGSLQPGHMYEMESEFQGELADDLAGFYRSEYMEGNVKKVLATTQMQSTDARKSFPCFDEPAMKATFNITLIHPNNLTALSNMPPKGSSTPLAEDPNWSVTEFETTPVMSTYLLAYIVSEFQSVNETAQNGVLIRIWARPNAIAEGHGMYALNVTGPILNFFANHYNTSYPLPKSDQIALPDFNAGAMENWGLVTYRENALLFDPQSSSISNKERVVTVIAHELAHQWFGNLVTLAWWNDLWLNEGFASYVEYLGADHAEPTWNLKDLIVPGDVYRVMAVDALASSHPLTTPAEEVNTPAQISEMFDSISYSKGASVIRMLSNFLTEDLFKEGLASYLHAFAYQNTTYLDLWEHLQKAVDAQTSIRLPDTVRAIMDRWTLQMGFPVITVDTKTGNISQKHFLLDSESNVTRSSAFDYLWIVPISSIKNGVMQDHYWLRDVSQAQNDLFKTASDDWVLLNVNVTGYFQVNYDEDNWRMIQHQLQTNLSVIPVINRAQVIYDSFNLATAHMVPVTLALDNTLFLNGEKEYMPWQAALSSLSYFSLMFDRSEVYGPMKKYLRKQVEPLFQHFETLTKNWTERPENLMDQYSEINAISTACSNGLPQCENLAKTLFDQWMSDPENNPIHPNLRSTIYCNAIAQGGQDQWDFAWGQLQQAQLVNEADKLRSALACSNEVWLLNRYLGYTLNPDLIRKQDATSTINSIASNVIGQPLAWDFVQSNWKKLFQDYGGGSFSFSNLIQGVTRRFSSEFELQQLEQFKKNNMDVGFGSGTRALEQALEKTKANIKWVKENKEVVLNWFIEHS

>  <COMPOUND>
CC[C@@H](C)[C@H](NC(=O)[C@@H](S)[C@H](N)CCS(=O)(=O)O)C(=O)O

>  <Ki>
> 10 µM

$$$$
>  <COMPOUND>
N[C@H](CCS(=O)(=O)O)[C@@H](S)C(=O)N[C@@H](Cc1ccc(O)cc1)C(=O)N[C@@H](CC(=O)O)C(=O)O

>  <Ki>
31 µM

$$$$
>  <COMPOUND>
CC[C@H](C)[C@@H](NC(=O)[C@H](S)[C@H](N)CCS(=O)(=O)O)C(=O)N[C@@H](CC(=O)O)C(=O)O

>  <Ki>
> 100 µM

$$$$
>  <COMPOUND>
CC[C@@H](C)[C@H](NC(=O)[C@H](S)[C@H](N)CCS(=O)(=O)O)C(=O)O

>  <Ki>
> 10 µM

$$$$
>  <COMPOUND>
CC[C@@H](C)[C@H](NC(=O)[C@@H](S)[C@@H](N)CCC(=O)O)C(=O)N[C@@H](CC(=O)O)C(=O)O

>  <Ki>
3.9 µM

$$$$
>  <COMPOUND>
CC[C@@H](C)[C@H](NC(=O)[C@@H](S)[C@H](N)CCS(=O)(=O)O)C(N)=O

>  <Ki>
> 10 µM

$$$$
>  <COMPOUND>
CC[C@@H](C)[C@H](NCC(S)C(N)CCS(N)(=O)=O)C(=O)N[C@@H](CC(=O)O)C(=O)O (some centres undefined)

>  <Ki>
3.4 µM

$$$$
>  <COMPOUND>
CC[C@H](C)[C@@H](NC(=O)[C@@H](S)[C@H](N)CCS(=O)(=O)O)C(=O)N[C@@H](CC(=O)O)C(=O)O

>  <Ki>
> 100 µM

$$$$
>  <COMPOUND>
CC[C@@H](C)[C@H](NC(=O)[C@H](S)[C@@H](N)CCC(=O)O)C(=O)N[C@@H](CC(=O)O)C(=O)O

>  <Ki>
0.12 µM

$$$$
>  <COMPOUND>
CC[C@@H](C)[C@H](NC(=O)[C@H](S)[C@H](N)CCC(=O)O)C(=O)N[C@@H](CC(=O)O)C(=O)O

>  <Ki>
> 10 µM

$$$$
>  <COMPOUND>
CC[C@@H](C)[C@H](NC(=O)[C@H](S)[C@H](N)CCS(=O)(=O)O)C(=O)N[C@@H](CC(=O)O)C(=O)O

>  <Ki>
> 100 µM

$$$$
>  <COMPOUND>
CC[C@@H](C)[C@H](NC(=O)[C@@H](S)[C@H](N)CCP(=O)(O)O)C(=O)N[C@@H](CC(=O)O)C(=O)O

>  <Ki>
> 10 µM

$$$$
>  <COMPOUND>
CC[C@@H](C)[C@H](NC(=O)[C@@H](S)[C@@H](N)CCS(=O)(=O)O)C(=O)N[C@@H](CC(=O)O)C(=O)O

>  <Ki>
> 100 µM

$$$$
>  <COMPOUND>
CC[C@@H](C)[C@H](NC(=O)[C@H](S)[C@H](N)CCP(=O)(O)O)C(=O)N[C@@H](CC(=O)O)C(=O)O

>  <Ki>
> 10 µM

$$$$

* * *

- SUBJECT_OF_TEST: Neprilysin (Oryctolagus cuniculus)
- Sequence (P08049 whole entry): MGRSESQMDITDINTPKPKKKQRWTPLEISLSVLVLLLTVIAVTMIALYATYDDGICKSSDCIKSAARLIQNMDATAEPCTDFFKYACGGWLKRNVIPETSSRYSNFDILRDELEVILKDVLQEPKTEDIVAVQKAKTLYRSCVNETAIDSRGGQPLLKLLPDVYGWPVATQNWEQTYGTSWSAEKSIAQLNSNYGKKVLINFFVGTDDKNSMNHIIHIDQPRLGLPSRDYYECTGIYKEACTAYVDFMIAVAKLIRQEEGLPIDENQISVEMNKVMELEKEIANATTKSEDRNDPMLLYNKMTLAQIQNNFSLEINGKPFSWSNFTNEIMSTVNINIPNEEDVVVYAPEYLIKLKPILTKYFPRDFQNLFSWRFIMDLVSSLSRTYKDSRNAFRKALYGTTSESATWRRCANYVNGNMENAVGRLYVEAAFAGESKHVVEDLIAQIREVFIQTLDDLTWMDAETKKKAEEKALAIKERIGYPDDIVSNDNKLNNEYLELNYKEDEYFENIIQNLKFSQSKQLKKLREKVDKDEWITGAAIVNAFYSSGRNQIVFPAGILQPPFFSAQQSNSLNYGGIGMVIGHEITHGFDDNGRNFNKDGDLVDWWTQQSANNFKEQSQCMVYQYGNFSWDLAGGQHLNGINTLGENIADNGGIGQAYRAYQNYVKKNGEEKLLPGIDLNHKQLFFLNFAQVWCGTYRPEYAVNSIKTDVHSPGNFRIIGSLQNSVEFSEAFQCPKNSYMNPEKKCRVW
RECORDED_METRIC: Ki (nM)

>  <COMPOUND>
CC[C@@H](C)[C@H](NC(=O)[C@H](S)[C@H](N)CCS(=O)(=O)O)C(=O)N1CCC(C(=O)O)[C@H]1C(=O)O (stereo partly specified)

>  <VALUE_OBSERVED>
219

$$$$
